- Tested on: ICR mice
- assay.summary: Acute toxicity experiment of single oral administration in mice
- Type: in vivo
- condition.notes: Day 6; female; 1000 mg/Kg single oral dose
measured.quantity: Daily Body Weight of Tested Female Mice (Mean ± SD) (g)
Reply with just the number (in g).

Consider the reported Daily Body Weight of Tested Female Mice (Mean ± SD) for these compounds:
>>> measured("COCCN1C(=O)CCC(N2C(=O)c3c(N)ccc(O)c3C2=O)C1=O (stereo not drawn) [Example 10]")
24.1
>>> measured("C[S+]([O-])CCN1C(=O)CCC(N2C(=O)c3cccc(N)c3C2=O)C1=O (stereo not drawn) [Example 12]")
25.3

What value of Daily Body Weight of Tested Female Mice (Mean ± SD) has been reported for the following compound? COCCN1C(=O)CCC(N2C(=O)c3cccc(NC(C)=O)c3C2=O)C1=O (stereo not drawn) [Example 1] 25.7

How about COCCCN1C(=O)CCC(N2C(=O)c3cccc(F)c3C2=O)C1=O (stereo not drawn) [Example 17] ? 23.1

How about CCOCCN1C(=O)CCC(N2C(=O)c3cccc(N)c3C2=O)C1=O (stereo not drawn) [Example 19] ? 23.3

How about CS(=O)(=O)CCN1C(=O)CCC(N2C(=O)c3cccc(N)c3C2=O)C1=O (stereo not drawn) [Example 13] ? 23.2

How about COCCN1C(=O)CCC(N2C(=O)c3cccc(O)c3C2=O)C1=O (stereo not drawn) [Example 23] ? 24.8

How about CSCCN1C(=O)CCC(N2C(=O)c3cccc(N)c3C2=O)C1=O (stereo not drawn) [Example 11] ? 23.2

How about COCCCN1C(=O)CCC(N2C(=O)c3cccc(N)c3C2=O)C1=O (stereo not drawn) [Example 26] ? 22.6

====

- System: ICR mice
- assay.summary: Acute toxicity experiment of single oral administration in mice
- Type: in vivo
- condition.notes: Day 7; male; 1000 mg/Kg single oral dose
Measured Daily Body Weight of Tested Male Mice (Mean ± SD) by item
Reply with just the number (in g).

Consider the reported Daily Body Weight of Tested Male Mice (Mean ± SD) for these compounds:
>>> measured("COCCCN1C(=O)CCC(N2C(=O)c3ccc(N)cc3C2=O)C1=O (stereo not drawn)")
29.0
>>> measured("COCCN1C(=O)CCC(N2C(=O)c3c(N)ccc(O)c3C2=O)C1=O (stereo not drawn)")
30.3
>>> measured("COCCN1C(=O)CCC(N2C(=O)c3cccc(C)c3C2=O)C1=O (stereo not drawn)")
28.9
>>> measured("COCCCCN1C(=O)CCC(N2C(=O)c3cccc(N)c3C2=O)C1=O (stereo not drawn)")
27.4

Field: next compound
What value of Daily Body Weight of Tested Male Mice (Mean ± SD) has been reported for the following compound? COCCN1C(=O)CCC(N2C(=O)c3cccc(NC(C)=O)c3C2=O)C1=O (stereo not drawn) 29.4

====

- System: ICR mice
- assay.summary: Acute toxicity experiment of single oral administration in mice
- Type: in vivo
- condition.notes: Day 4; male; 1000 mg/Kg single oral dose
- Experimental: The mice were fasted one day before the experiment. On the day of the experiment, 6 mice (ICR mice, body weight of 19-21 g, three females and three males) were selected in each experiment group. First of all, one female and one male were selected to orally give 1000 mg/Kg, and observed for 5-10 minutes. If there were no obvious side effects, the remaining 4 animals were orally given the same dose, and observed for 10-15 minutes. […] The state was observed and the body weight was recorded daily. […]
measured.quantity: Daily Body Weight of Tested Male Mice (Mean ± SD)

What value of Daily Body Weight of Tested Male Mice (Mean ± SD) has been reported for the following compound? CCOCCN1C(=O)CCC(N2C(=O)c3cccc(N)c3C2=O)C1=O (stereo not shown) [Example 19] 25.0 ± 2.0 g

How about COCCCN1C(=O)CCC(N2C(=O)c3ccc(N)cc3C2=O)C1=O (stereo not shown) [Example 18] ? 25.6 ± 0.8 g
